For each entry below, report its solubility at 24 h value.
Assay text: Saturation concentration (solubility) of drugs in NMP
Type: physicochemical
Cond: N-methyl-2-pyrrolidone (NMP), 40 °C, organic solvent or mixture, thermodynamic from solid, quantified by HPLC
Where a name gives a salt, the structure may show the parent alone.
Numbers only, in mg/mL.

Molecule | solubility at 24 h (mg/mL)
CC(C)OC(=O)OCOP(=O)(CO[C@H](C)Cn1cnc2c(N)ncnc21)OCOC(=O)OC(C)C [TenofovirDisoproxil Fumarate] | 156
O=C1Nc2ccc(Cl)cc2[C@@](C#CC2CC2)(C(F)(F)F)O1 [Efavirenz] | 118
Nc1nc(=O)n([C@@H]2CS[C@H](CO)O2)cc1F [Emtricitabine] | 202
Nc1ccn([C@@H]2CS[C@H](CO)O2)c(=O)n1 [Lamivudine] | 250

Could you tell me solubility at 24 h for each of these molecules? They are listed below.
1. Cc1cc(/C=C/C#N)cc(C)c1Nc1ccnc(Nc2ccc(C#N)cc2)n1 [Rilpivirine]
2. COC(=O)N[C@H](C(=O)N[C@@H](Cc1ccccc1)[C@@H](O)CN(Cc1ccc(-c2ccccn2)cc1)NC(=O)[C@@H](NC(=O)OC)C(C)(C)C)C(C)(C)C [Atazanavir]
3. Cc1cn([C@H]2C=C[C@@H](CO)O2)c(=O)[nH]c1=O [Stavudine]
4. Cc1cc(C#N)cc(C)c1Oc1nc(Nc2ccc(C#N)cc2)nc(N)c1Br [Etravirine]
5. C[C@@H]1CCO[C@H]2Cn3cc(C(=O)NCc4ccc(F)cc4F)c(=O)c(O)c3C(=O)N12 [Dolutegravir]

Found:
[228, 328, 248, 122, 255]

* * *

Assay text: Saturation concentration (solubility) of drugs in NMP
Type: physicochemical
Cond: 40 °C, organic solvent or mixture, thermodynamic from solid; N-methyl-2-pyrrolidone, quantified by HPLC
For each entry below, report its solubility at 24 h value.
Answers are plain numbers, in mg/mL.

Compound | solubility at 24 h (mg/mL)
Cc1nnc(C(=O)NC(C)(C)c2nc(C(=O)NCc3ccc(F)cc3)c(O)c(=O)n2C)o1 [Raltegravir] | 54

Next:
Lookup: Field request: solubility at 24 h | item: CC(C)CN(C[C@@H](O)[C@H](Cc1ccccc1)NC(=O)O[C@H]1CO[C@H]2OCC[C@H]21)S(=O)(=O)c1ccc(N)cc1 [Darunavir]
Found: 511
